Catalogue of self-aminoacylation readings, one per entry.
- Tested on: biotinyl-Met-oxazolone
- Experimental details: self-aminoacylation, catalytic enhancement (BMO) (fold over background); higher = more active; k-Seq, kA / k0A0; sequences stand for … in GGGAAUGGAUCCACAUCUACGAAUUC…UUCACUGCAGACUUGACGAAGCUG
Variants at the floor of the assay were thinned out.
Observation type: self-aminoacylation

>>> print(df.to_string())
                           sequence_content  observed_result
0  AUGCACCUAGGCCAUCGGGUG [Fam2.2 aminoacylation ribozyme variant]             3.87
1  AUGACCCAGGUCAUCGAGUGA [Fam2.1 aminoacylation ribozyme variant]             4.72
2  AUUACACUGGUCGUCGAGUGA [Fam2.1 aminoacylation ribozyme variant]             1.14
3  CCACACUUCGAGCAAUUGGUC [Fam1B.1 aminoacylation ribozyme variant]            0.721
4  UAGUUUGCUAGUAGUCGCAAG [Fam3.1 aminoacylation ribozyme variant]             1.17
5  AUUACCCUGGUGAUCGACUGA [Fam2.1 aminoacylation ribozyme variant]            0.951
6  ACGUUUACUAAUAGUCGCAAG [Fam3.1 aminoacylation ribozyme variant]             1.35
7  CUAAUGCAAACAAUCGGUCUG [Fam1A.1 aminoacylation ribozyme variant]            0.631
8  AUUACCCUGCUAAUCGAGUGA [Fam2.1 aminoacylation ribozyme variant]             2.41

###

- System: biotinyl-Leu-oxazolone
- Experimental details: self-aminoacylation, catalytic enhancement (BLO) (fold over background); higher = more active; k-Seq, kA / k0A0; sequences stand for … in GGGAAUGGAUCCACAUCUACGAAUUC…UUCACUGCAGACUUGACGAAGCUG
Variants at the floor of the assay were thinned out.
Observation type: self-aminoacylation

>>> df
                           sequence_content  observed_result
0  AUUACCCUCGUCAUCGUGUGA [Fam2.1 aminoacylation ribozyme variant]             1.47
1  AAGUUUGCUACUAGUCGCAAC [Fam3.1 aminoacylation ribozyme variant]            0.763
2  GUUACCCUGGUCAUCAAGUGA [Fam2.1 aminoacylation ribozyme variant]             3.12
3  GAGUUUGCUAUUAGUCGCAAG [Fam3.1 aminoacylation ribozyme variant]             1.28
4  AUACACCUACGUCAUCGGGUG [Fam2.2 aminoacylation ribozyme variant]              5.2

###

- Test system: biotinyl-Val-oxazolone
- Experimental details: self-aminoacylation, catalytic enhancement (BVO) (fold over background); higher = more active; k-Seq, kA / k0A0; sequences stand for … in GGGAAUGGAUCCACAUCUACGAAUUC…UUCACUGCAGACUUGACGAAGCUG
Fewer inactive variants are shown than the library holds.
Observation type: self-aminoacylation

                           sequence_content     observation_type  observed_result
0  CCAAGCUUCAAGCAAUCGGUC [Fam1B.1 aminoacylation ribozyme variant]  self-aminoacylation              1.3
1  AAGUUUGCUAAUAGUAGCUAG [Fam3.1 aminoacylation ribozyme variant]  self-aminoacylation            0.988
2  CCGCACUUCACGCAAUCGGUC [Fam1B.1 aminoacylation ribozyme variant]  self-aminoacylation              2.1
3  AUUACCCUGGUAAUCGAGUGA [Fam2.1 aminoacylation ribozyme variant]  self-aminoacylation             3.82
4  CUACUGCAAACAAUCGAUCUG [Fam1A.1 aminoacylation ribozyme variant]  self-aminoacylation            0.732
5  AUUACCCUGAUCAUCGGGUGA [Fam2.1 aminoacylation ribozyme variant]  self-aminoacylation             5.38
6  CCUCACUUGAAGCAAUCGGUC [Fam1B.1 aminoacylation ribozyme variant]  self-aminoacylation            0.678
7  CGUCACCUAGGUCAUCGGGUG [Fam2.2 aminoacylation ribozyme variant]  self-aminoacylation             5.16
